These entries and their values trace back to paper PMC5750218.

METHOD: In vivo pharmacokinetics in mice
ASSAY_SETUP: male, CD1, plasma; mouse, 10 mg/kg SC, 8.00 h
PARAMETER_MEASURED: concentration at 8 h (ng/mL)
Supply the numeric figure in ng/mL, leaving out any unit text.

Fill blank: measured concentration at 8 h of the compound `CN[C@H](CC(C)C)C(=O)N[C@H]1C(=O)N[C@@H](CC(N)=O)C(=O)N[C@H]2C(=O)N[C@H]3C(=O)N[C@H](C(=O)N[C@H](C(=O)O)c4cc(O)cc(O)c4-c4cc3ccc4O)[C@H](O)c3ccc(c(Cl)c3)Oc3cc2cc(c3O[C@@H]2O[C@H](CO)[C@@H](O)[C@H](O)[C@H]2O[C@H]2C[C@](C)(N)[C@H](O)[C@H](C)O2)Oc2ccc(cc2Cl)[C@H]1O` is ____.
6.17
